Each recorded value in this set is attributed to the COVID Moonshot data (paper PMC11187573).

Molecular target: UniProtKB P0DTD1
Details: 50.0 µM
parameter: inhibition (%)

> print(dat)
                                    molecule   parameter  result.number
 1    NS(=O)(=O)c1ccc(N2CCC(c3ccncc3)CC2)cc1  inhibition           1.65
 2              O=C(CC(=O)N1CCOCC1)Nc1ccccc1  inhibition          -26.9
 3               Cc1ccncc1NC(=O)C12CC(CO1)C2  inhibition           12.2
 4        O=C(CCl)N1CCN(S(=O)(=O)c2ccsc2)CC1  inhibition           73.7
 5     C=CC(=O)N1CCN(Cc2cc(Cl)cc3ccccc23)CC1  inhibition           37.9
 6  C=CC(=O)N(C1CCCC(C(C)C)CC1)C(C(=O)NC(C)(C)C)c1cccnc1 (stereo not drawn)  inhibition           8.24
 7  NC(=O)CCN(C(=O)CCl)C1CCS(=O)(=O)C1 (stereo not drawn)  inhibition           18.6
 8         COCC1CCN(c2ccc(S(N)(=O)=O)cc2)CC1  inhibition          -23.1
 9  O=C1[C@H](Nc2nccn3cnnc23)CCN1c1cccc(Cl)c1 (stereo in doubt)  inhibition           5.29
10  C=CC(=O)N(c1ccc(C(C)(C)C)cc1)C(C(=O)NCc1ccc(F)cc1)c1cccnc1 (stereo not drawn)  inhibition           76.4
11  CC(C)Cn1cc(NC(=O)NC2CCCc3ccccc32)c2ccccc2c1=O (stereo not drawn)  inhibition           12.2
12  Cc1ccncc1NC(=O)CC(C)C(C)C (stereo not drawn)  inhibition           29.2
13     CCN(C)CC1CCN(c2ccc(S(N)(=O)=O)cc2)CC1  inhibition           6.02
14  C=CC(=O)N(c1ccc(C(C)(C)C)cc1)C(C(=O)Nc1ccc(OC)nc1)c1cccnc1 (stereo not drawn)  inhibition           13.4
15  CC(C(=O)Nc1cccc(NC2CCCC2)c1)c1cnccn1 (stereo not drawn)  inhibition          0.913
16  CNC(=O)c1ccc(CS(=O)(=O)NCC(F)(F)c2ccc(F)cc2F)cc1  inhibition           9.79
17  C=CC(=O)N(c1ccc(C(C)(C)C)cc1)C(C(=O)NCc1ccccc1)c1cccnc1 (stereo not drawn)  inhibition           66.6
18  O=C1CC[C@@H](C(=O)Nc2cccc(Cl)c2)CN1 (stereo in doubt)  inhibition          -3.68
19  Cc1cc(C)cc(CS(=O)(=O)N[C@@]23COC[C@@H]2C3)c1 (stereo in doubt)  inhibition          -9.38
20     Cc1cccc(CS(=O)(=O)N2CCC(C(N)=O)CC2)c1  inhibition          0.138
21  C=CC(=O)N(c1ccc(C(C)(C)C)cc1)C(C(=O)Nc1ccc(OC)cc1)c1cccnc1 (stereo not drawn)  inhibition             12
22  COc1ncccc1N(C)C(=O)C1CCOc2ccc(Cl)cc21 (stereo not drawn)  inhibition           2.54
23  C=CC(=O)N(c1ccc(C(F)(F)F)cc1)C(C(=O)NCCc1cccc(F)c1)c1cncc(O)c1 (stereo not drawn)  inhibition           44.9
24  Cc1ccncc1NC(=O)CN(C)S(=O)(=O)c1cccc2cccnc12  inhibition           17.3
25          Cc1ccncc1NC(=O)Cc1ccc2[nH]ccc2c1  inhibition          -2.33
26                     O=C1Nc2ccc(Br)cc2C1=O  inhibition          -1.05
27  COc1ccc(OC)c(CNC(=O)Nc2cn(CC(C)C)c(=O)c3ccccc23)c1  inhibition           0.63
28               O=C(Cc1cccc(Cl)c1)Nc1cnccn1  inhibition           13.3
29              O=C(Nc1cnccc1Cl)c1cccc(Cl)c1  inhibition           3.23
30  N#Cc1cccc(C2CN(C(=O)CCl)Cc3ccccc32)c1 (stereo not drawn)  inhibition           95.3
31  O=C(Nc1ccc(N(Cc2ccsc2)C(=O)Cn2nnc3ccccc32)cc1)C1CC1  inhibition           70.2
32  CC(=O)N[C@@H](Cc1ccc(O)cc1)C(=O)NC(CN1CCN(C(=O)CCl)CC1)c1ccccc1 (stereo in doubt)  inhibition           41.2
33  C=CC(=O)N(c1cc(C(C)(C)C)on1)C(C(=O)NC(C)(C)C)c1cccnc1 (stereo not drawn)  inhibition           16.1
34  COc1ccc(C2CC(c3cccs3)=NN2C(=O)CCl)cc1OC (stereo not drawn)  inhibition           99.2
35  C=CC(=O)N(c1ccc(C(C)OC)cc1)C(C(=O)Nc1ccc(Cl)cc1)c1cccnc1 (stereo not drawn)  inhibition           26.1
36  NS(=O)(=O)c1ccc(N2CCC([C@@H]3CCCO3)CC2)cc1 (stereo in doubt)  inhibition            -16
37  C=CC(=O)N(c1ccc(C(C)(C)C)cc1)C(C(=O)NC(C)(C)C)c1cncc(Cl)c1 (stereo not drawn)  inhibition           19.6
38  C=CC(=O)N(c1ccc(C(C)OC)cc1)C(C(=O)Nc1cccc(CC)c1)c1cccnc1 (stereo not drawn)  inhibition           63.7
39  O=C(NCc1ccc(Cl)cc1CN1CCN(C(=O)CCl)CC1)[C@@H]1CCCOC1 (stereo in doubt)  inhibition           77.9
40  C=CC(=O)N(c1ccc(C(C)(C)C)cc1)C(C(=O)NC(C)(C)C)c1cncc(C(C)(F)F)c1 (stereo not drawn)  inhibition          -15.5
41    Cc1ccncc1NC(=O)CN1C(=O)COc2ccc(Cl)cc21  inhibition           49.3
42        Cc1ccncc1NC(=O)C(C)(C)c1cccc(Cl)c1  inhibition             68
43  O=C(Nc1nncn1C1CC1)C1CCOc2ccccc21 (stereo not drawn)  inhibition           2.15
